System: Escherichia coli
Test: Antibacterial activity against Escherichia coli ATCC25922 measured after 18 hrs by micro broth dilution assay
Assay type: functional
Metric: MIC

The examples below pair each entry with its known result.
Molecule | MIC
CCCc1n(CCc2ccccc2)c(C)c(CC)[n+]1CCc1ccccc1 | > 64 µg/mL
CCCc1c(C)cn(CCc2ccccc2)c2cc(CCC)[n+](CCc3ccccc3)c1-2 | > 64 µg/mL
CCCc1c(CC)cc(CC)c[n+]1CCc1ccccc1 | > 64 µg/mL
CCCC1=[N+](CCc2ccccc2)C(C)(CCC(=O)c2ccccc2N)C(NCCc2ccccc2)=C1 (stereo unspecified) | > 64 µg/mL

Please state recorded MIC (tested on Escherichia coli) of `CCCc1cc2n(CCc3ccccc3)cc(-c3ccccc3)cc-2[n+]1CCc1ccccc1` 64 µg/mL

Value wanted: MIC (Escherichia coli) of entry `CCCc1n(CCc2ccccc2)c(C)c(C)[n+]1CCc1ccccc1` > 64 µg/mL

----------
System: Mycolicibacterium smegmatis
Test: Antibacterial activity against Mycobacterium smegmatis ATCC607 measured after 48 hrs by BacTiter-glo assay
Type: functional
Listed here: items and their measured MIC.
Give just the numeric value; µg/mL need not be written.

For orientation, consider the following solved cases.
Compound | System name | Test value
CCCC1=[N+](CCc2ccccc2)C(C)(CCC(=O)c2ccccc2N)C(NCCc2ccccc2)=C1 (stereo unspecified) | Mycolicibacterium smegmatis | 8
CCCc1n(CCc2ccccc2)c(C)c(C)[n+]1CCc1ccccc1 | Mycolicibacterium smegmatis | 8
CCCc1n(CCc2ccccc2)c(C)c(CC)[n+]1CCc1ccccc1 | Mycolicibacterium smegmatis | 8
CCCc1cc2n(CCc3ccccc3)cc(-c3ccccc3)cc-2[n+]1CCc1ccccc1 | Mycolicibacterium smegmatis | 0.5

Please look up its MIC: `CCCc1c(C)cn(CCc2ccccc2)c2cc(CCC)[n+](CCc3ccccc3)c1-2` 4

----------
Overview of reported MIC across a group of compounds:
Tested on: Candida albicans
Assay: Antifungal activity against Candida albicans FH2173 measured after 48 hrs by BacTiter-glo assay
Assay type: functional

Structure | Test value
CCCc1n(CCc2ccccc2)c(C)c(CC)[n+]1CCc1ccccc1 | > 64 µg/mL
CCCc1c(CC)cc(CC)c[n+]1CCc1ccccc1 | > 64 µg/mL

We next turn to a different compound, shown below.
Could you share which MIC value was measured for `CCCc1n(CCc2ccccc2)c(C)c(C)[n+]1CCc1ccccc1` ? > 64 µg/mL

Origin of values: ChEMBL document CHEMBL5120818
